tested on: Caco-2; test: cell viability relative to DMSO; higher = less toxic; settings: 72 h; 10000 nM
Hi! Just check whether cell viability is below 90%. Below gives 1 (yes), equal or above gives 0 (no).

Example results:
molecule: C[N+]1(C)[C@@H]2CC[C@H]1C[C@@H](OC(=O)C(CO)c1ccccc1)C2 (some centres undefined) [methylatropine-nitrate]
className: 0 (no)
--
molecule: CC1=C(C(=O)O)N2C(=O)[C@@H](NC(=O)[C@H](N)C3=CCC=CC3)[C@H]2SC1 [cephradine]
className: 0 (no)
--
molecule: Cn1cnnc1Sc1c([N+](=O)[O-])ncn1C [MNITMT]
className: 0 (no)
--
molecule: CC(C)[C@H](CO)Nc1nc(Nc2cc(N)cc(Cl)c2)c2ncn(C(C)C)c2n1 [aminopurvalanol-a]
className: 1 (yes)
--
molecule: Cc1csc2c(N[C@@H](C)CN3CCN(S(=O)(=O)c4ccc(Cl)c(Cl)c4)CC3)ncnc12 [LPA2-antagonist-1]
className: 1 (yes)
--
molecule: CC(C)(C)Nc1nc(Nc2ccc(C(N)=O)cc2)cc(N)c1C#N [TC-Mps1-12]
className: 1 (yes)
--
molecule: O=C(O)c1cc(/N=N/c2ccc(S(=O)(=O)Nc3ccccn3)cc2)ccc1O [sulfasalazine]
className: 0 (no)

[Q] API: query returns whether the molecule falls strictly under 90% in cell viability. Query: O=c1cc(N2CCN(c3cccc(C(F)(F)F)c3)CC2)[nH]c(=O)n1C1CCCCC1 [ML179]
[A] 0 (no)

====

Assignment: determine reported cell viability for the given molecules.
tested on: Caco-2; assay: cell viability relative to DMSO; higher = less toxic; settings: 72 h; 100 nM
One number for each entry, in %.

# annotated cases, reported cell viability shown
molecule: Clc1ccc(CO/N=C(\Cn2ccnc2)c2ccc(Cl)cc2Cl)c(Cl)c1 [oxiconazole]
unitOfMeasurement: %
cell viability: 99.8
//
molecule: c1ccc(OCc2ccc(CCCN3CCOCC3)cc2)cc1 [fomocaine]
unitOfMeasurement: %
cell viability: 100
//
molecule: O=S(=O)(/N=C/c1c(O)ccc2ccccc12)c1cccs1
unitOfMeasurement: %
cell viability: 97.4

Please supply cell viability for each of the following items, keeping them in order.
1. CC(=O)[C@H]1CC[C@H]2[C@@H]3CC[C@H]4C[C@H](O)CC[C@]4(C)[C@H]3C(=O)C[C@]12C [alfaxalone]
2. O=C(O)c1cn(C2CC2)c2cc(N3CCNCC3)c(F)cc2c1=O [ciprofloxacin]
3. O=C1c2ccccc2-c2c(NCCc3ccccc3)c(=O)[nH]c3cccc1c23 [BRD7389]
4. CC1=C(C(=O)O)N2C(=O)[C@@H](NC(=O)[C@H](N)C3=CCC=CC3)[C@H]2SC1 [cephradine]
5. O=C(CCCCCCC(=O)Nc1ccccc1)NO [vorinostat]
6. CCN(CC)CCNc1ccc(CO)c2sc3ccccc3c(=O)c12 [hycanthone]

[A]
1. 89.6
2. 108
3. 97.3
4. 94.8
5. 93.9
6. 111

====

test system: Calu-3; experiment: cell viability relative to DMSO; higher = less toxic; details: 72 h; 10 nM
Assignment: determine reported cell viability for the given compounds.
Answers are plain numbers, in %.

compound: Cc1ccc(S(N)(=O)=O)cc1 [para-toluenesulfonamide]
testedOn: Calu-3
endpoint: cell viability
quantitativeResult: 94.8

Please supply cell viability for each of the following items, keeping them in order.
1. O=C(NC[C@H](O)CO)c1ccncc1Nc1ccc(I)cc1F
2. O=C(NCc1cccc(O)c1)Nc1nc(-c2ccncc2)cs1 [RKI-1447]
3. COc1cc(OC2CCN(C)CC2)ccc1Nc1ncc2c(n1)n(C1CCCC1)c(=O)n2C [AZ3146]
4. C[C@]12C=CC(=O)C=C1CC[C@@H]1[C@@H]2C(=O)C[C@@]2(C)[C@H]1CC[C@]2(O)C(=O)CO [prednisone]
5. C=CCOc1ccccc1OCC(O)CNC(C)C (stereo not drawn) [oxprenolol]
6. O=C(O)c1ccccc1Nc1cc(Cl)ccc1C(=O)O [lobenzarit]

[A]
[83.1, 128, 87.4, 98.1, 90.8, 88.1]

[Q] Please list cell viability recorded for the compound C=C[C@@H]1C[C@]1(NC(=O)[C@@H]1C[C@@H]2CN1C(=O)[C@H](C(C)(C)C)NC(=O)O[C@@H]1C[C@H]1CCCCCc1nc3ccc(OC)cc3nc1O2)C(=O)NS(=O)(=O)C1CC1 [grazoprevir]
[A] 107
